assay-text: Microsomal stability in human liver microsomes assessed as compound remaining after 30 mins in presence of NADPH
Assay type: ADME, Microsome
measurement-parameters: read-out: Stability
reported-property: remaining at 0.5 h (%)
Give bare numbers, in %.

Value of measured remaining at 0.5 h for the entry "O=C(O)c1c(Nc2cccc(F)c2)[nH]c2cc(Cl)ccc2c1=O" : 62

* * *

Tested on: Vero
assay-text: Cytotoxicity against african green monkey Vero cells
Format: toxicity, cell-based
measurement-parameters: chlorocebus sabaeus
reported-property: CC50

Look over these answered cases.
Sample "CCC(CC)COC(=O)[C@H](C)N[P@](=O)(OC[C@H]1O[C@@](C#N)(c2ccc3c(N)ncnn23)[C@H](O)[C@@H]1O)Oc1ccccc1" ; CC50 observed: > 25 µM

Quick note, CC50 for "COc1ccc2[nH]c(Nc3cccc(F)c3)c(C(=O)O)c(=O)c2c1" landed at > 25 µM

Notebook: "O=C(O)c1c(Nc2cccc(F)c2)[nH]c2ccc(Cl)cc2c1=O" , CC50 read as > 25 µM

Memo: "O=C(O)c1c(Nc2cccc(F)c2)[nH]c2ccccc2c1=O" , reported CC50: > 25 µM

Note to self: CC50 recorded for "O=C(O)c1c(Nc2cccc(F)c2)[nH]c2cc(F)c(F)cc2c1=O" was > 25 µM

Further cases:
The reported value for "O=C(O)c1c(Nc2cccc(F)c2)[nH]c2cc(Cl)ccc2c1=O" in terms of CC50 is > 25 µM

* * *

test-target: CYP3A4 (Homo sapiens)
Sequence (P08684 whole entry): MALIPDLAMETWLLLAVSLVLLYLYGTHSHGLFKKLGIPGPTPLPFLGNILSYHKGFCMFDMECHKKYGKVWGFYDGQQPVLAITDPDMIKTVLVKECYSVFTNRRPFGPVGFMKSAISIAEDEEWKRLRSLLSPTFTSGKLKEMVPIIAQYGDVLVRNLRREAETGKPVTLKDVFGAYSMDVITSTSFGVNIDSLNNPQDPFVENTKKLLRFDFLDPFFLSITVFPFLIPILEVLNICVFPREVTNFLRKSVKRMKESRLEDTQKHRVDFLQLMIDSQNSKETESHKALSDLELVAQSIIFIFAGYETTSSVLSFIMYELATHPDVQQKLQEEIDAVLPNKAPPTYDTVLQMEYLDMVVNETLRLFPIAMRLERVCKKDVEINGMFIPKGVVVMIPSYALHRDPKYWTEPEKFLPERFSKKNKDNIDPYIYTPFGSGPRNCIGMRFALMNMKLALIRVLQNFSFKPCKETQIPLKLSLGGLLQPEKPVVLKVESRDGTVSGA
assay-text: Inhibition of human CYP3A4 at 10 uM relative to control
Format: ADME
reported-property: inhibition at 10 µM

Per the records, this compound ( "O=C(O)c1c(Nc2cccc(F)c2)[nH]c2cc(Cl)ccc2c1=O" ) has inhibition at 10 µM equal to < 1%

* * *

assay-text: Selectivity index, ratio of CC50 for african green monkey Vero cells to EC50 for Severe acute respiratory syndrome coronavirus 2
Format: toxicity
measurement-parameters: read-out: Ratio CC50/EC50
I'd be grateful if you could share measured selectivity ratio for these entries.
Give bare numbers.

According to the records, this compound CCN(CC)CCCC(C)Nc1ccnc2cc(Cl)ccc12 (stereo unspecified) [CHLOROQUINE] displays selectivity ratio of 3

Reported selectivity ratio ( COC(=O)c1c([S+](C)[O-])[nH]c2cc(Cl)ccc2c1=O (stereo unspecified) ) = 1.3

Sample "O=C(O)c1c(Nc2ccc(F)cc2)[nH]c2ccc(Cl)cc2c1=O" ; selectivity ratio observed: 8.9

GET /value?item= "O=C(O)c1c(Nc2cccc(F)c2)[nH]c2cc(Cl)ccc2c1=O" &field=selectivity ratio returns 16

# selectivity ratio of "O=C(O)c1c(Nc2cccc(F)c2)[nH]c2ccc(Cl)cc2c1=O" = 17

Please look at the following compound next.
Looking up "O=C(O)c1c(Nc2ccc(F)cc2)[nH]c2cc(F)c(F)cc2c1=O" , I found its selectivity ratio recorded as 7.2

* * *

assay-text: Microsomal stability in rat liver microsomes assessed as compound remaining after 30 mins in presence of NADPH
Type: ADME, Microsome
measurement-parameters: read-out: Stability
reported-property: remaining at 0.5 h (%)
Numbers only, in %.

The compound listed as "O=C(O)c1c(Nc2cccc(F)c2)[nH]c2cc(Cl)ccc2c1=O" shows remaining at 0.5 h equal to 14

* * *

test-target: UniProt Q12809
Sequence (Q12809 whole entry): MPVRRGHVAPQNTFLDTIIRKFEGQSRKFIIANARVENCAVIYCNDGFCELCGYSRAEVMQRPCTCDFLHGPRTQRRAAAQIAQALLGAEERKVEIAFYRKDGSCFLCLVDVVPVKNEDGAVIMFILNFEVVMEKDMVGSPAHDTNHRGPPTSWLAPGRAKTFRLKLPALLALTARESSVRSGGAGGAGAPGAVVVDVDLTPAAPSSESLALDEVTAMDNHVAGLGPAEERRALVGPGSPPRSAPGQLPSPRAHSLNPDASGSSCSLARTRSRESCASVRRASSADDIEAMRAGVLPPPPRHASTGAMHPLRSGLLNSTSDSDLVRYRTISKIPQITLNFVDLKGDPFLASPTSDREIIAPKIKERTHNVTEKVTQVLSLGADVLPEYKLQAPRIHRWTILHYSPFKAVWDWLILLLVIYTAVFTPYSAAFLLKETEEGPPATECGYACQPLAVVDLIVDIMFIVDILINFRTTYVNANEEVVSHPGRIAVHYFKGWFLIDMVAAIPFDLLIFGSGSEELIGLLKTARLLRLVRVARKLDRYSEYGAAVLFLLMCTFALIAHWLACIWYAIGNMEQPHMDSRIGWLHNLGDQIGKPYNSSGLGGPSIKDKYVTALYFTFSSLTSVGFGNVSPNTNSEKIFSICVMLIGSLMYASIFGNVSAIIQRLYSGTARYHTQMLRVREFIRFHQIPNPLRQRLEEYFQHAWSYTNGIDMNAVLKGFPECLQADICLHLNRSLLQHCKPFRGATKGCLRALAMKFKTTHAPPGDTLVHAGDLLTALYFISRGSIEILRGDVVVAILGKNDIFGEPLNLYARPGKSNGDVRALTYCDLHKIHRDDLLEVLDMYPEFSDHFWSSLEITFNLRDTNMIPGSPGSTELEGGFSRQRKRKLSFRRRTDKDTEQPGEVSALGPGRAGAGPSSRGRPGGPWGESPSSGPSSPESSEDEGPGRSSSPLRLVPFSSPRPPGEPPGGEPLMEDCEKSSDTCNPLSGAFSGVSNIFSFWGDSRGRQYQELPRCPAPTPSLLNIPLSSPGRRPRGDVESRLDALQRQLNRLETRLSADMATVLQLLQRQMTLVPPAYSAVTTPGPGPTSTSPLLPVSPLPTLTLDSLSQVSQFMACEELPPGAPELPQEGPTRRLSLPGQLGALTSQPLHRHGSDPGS
reported-property: IC50

GET /value?item= "O=C(O)c1c(Nc2cccc(F)c2)[nH]c2cc(Cl)ccc2c1=O" &field=IC50 returns > 100 µM
